meta.source: ChEMBL document CHEMBL3792340

- protocol: Antioxidant activity assessed as DPPH radical scavenging activity after 30 mins by microplate reader method
- Assay type: physicochemical
In this section, each of the compounds is paired with its reported pEC50.
Expect pEC50 as a plain number equal to -log10 of the molar concentration.

O=C1/C(=C/c2ccc(O)c(O)c2)C(c2ccc(O)c(O)c2)n2cccc21 (stereo unspecified)    5.02
COc1ccc(C2/C(=C\c3ccc(O)c(OC)c3)C(=O)c3cccn32)cc1O (stereo unspecified)    4.00
COc1cc(/C=C2/C(=O)c3cccn3C2c2ccc(O)c(OC)c2)ccc1O (stereo unspecified)    3.99
COc1cc(/C=C/C(=O)O)ccc1O [FERULATE]    4.36
COc1cc(C2/C(=C\c3ccc(O)c(O)c3)C(=O)c3cccn32)ccc1O (stereo unspecified)    4.92
COc1cc(C2/C(=C\c3cc(OC)c(O)c(OC)c3)C(=O)c3cccn32)ccc1O (stereo unspecified)    3.61
O=C1/C(=C/c2ccc(O)c(O)c2)C(c2ccccc2)n2cccc21 (stereo unspecified)    4.90
Cc1c(C)c2c(c(C)c1O)CCC(C)(C(=O)O)O2 (stereo unspecified) [TROLOX]    4.74

The recorded pEC50 for COc1cc(/C=C/C(=O)CC(=O)/C=C/c2ccc(O)c(OC)c2)ccc1O [CURCUMIN] is 4.72

Memo: COc1ccc(C2/C(=C\c3ccc(O)c(O)c3)C(=O)c3cccn32)cc1O (stereo unspecified) , reported pEC50: 4.89

* * *

- protocol: Antioxidant activity assessed as nitric oxide radical scavenging activity at 40 uM after 3 hrs by Griess assay
- Format: physicochemical
Classification field: enter fulfilled for Activity values not below 60%, not fulfilled for values below it.

Determine whether measured Activity meets or exceeds 60% for O=C1/C(=C/c2ccc(O)c(O)c2)C(c2ccc(O)c(O)c2)n2cccc21 (stereo not given)
not fulfilled

Tell me whether Activity is at least 60% here: O=C1/C(=C/c2ccc(O)c(O)c2)C(c2ccccc2)n2cccc21 (stereo not given)
fulfilled

Activity >= 60% for O=c1c(O)c(-c2ccc(O)c(O)c2)oc2cc(O)cc(O)c12 [QUERCETIN] ?
fulfilled

Answer whether Activity of O=C1/C(=C/c2ccccc2)C(c2ccccc2)n2cccc21 (stereo not given) is greater than or equal to 60%.
not fulfilled

Hi, just wondering whether COc1ccc(/C=C2/C(=O)c3cccn3C2c2ccc(OC)c(O)c2)cc1O (stereo not given) shows Activity of 60% or higher.
not fulfilled

* * *

- protocol: Antioxidant activity assessed as nitric oxide radical scavenging activity at 40 uM after 3 hrs by Griess assay
- Format: physicochemical
parameter.measured: Activity (%)
Number only, in %; omit the unit.

Before answering, review these 3 worked examples.
COc1ccc(C2/C(=C\c3ccc(O)c(OC)c3)C(=O)c3cccn32)cc1O (configuration not stated)    55.1
COc1cc(/C=C2/C(=O)c3cccn3C2c2ccccc2)ccc1O (configuration not stated)    51.7
COc1cc(/C=C/C(=O)CC(=O)/C=C/c2ccc(O)c(OC)c2)ccc1O    60.4

Lab book: Activity of COc1cc(C2/C(=C\c3cc(OC)c(OC)c(OC)c3)C(=O)c3cccn32)ccc1O (configuration not stated) noted as 32.6

The value of Activity measured for the compound COc1cc(/C=C2/C(=O)c3cccn3C2c2ccc(O)c(OC)c2)ccc1O (configuration not stated) turned out to be 57

Form: compound = COc1cc(C2/C(=C\c3ccc(OCc4ccccc4)c(OCc4ccccc4)c3)C(=O)c3cccn32)ccc1OCc1ccccc1 (configuration not stated) ; Activity = 30.7

Entry COc1cc(/C=C/C(=O)O)ccc1O [FERULATE] — recorded Activity = 46.4
